Tested on: Trypsin
Protocol Details: Esterase assay, trypsin
Assay type: biochemical
Protocol Conditions: Z-AX-OMe substrate, X = P1 residue; rates approximately ± 10%
Where a SMILES comes first, the peptide text is derived from it. The star is where a group is joined. Cbz = O=C(OCc1ccccc1)*
Outcome Measure: Esterase rate, Trypsin

Consider the reported Esterase rate, Trypsin for these compounds:
Task: Esterase rate, Trypsin of COC(=O)[C@H](Cc1ccccc1)NC(=O)[C@H](C)NC(=O)OCc1ccccc1 [Phe] on Trypsin?
Result: 2.9 A580 change/min./mg protease

Task: And COC(=O)[C@H](Cc1cnc[nH]1)NC(=O)[C@H](C)NC(=O)OCc1ccccc1 [His] (Cbz-Ala-His-OMe) ?
Result: 3.0 A580 change/min./mg protease

Task: And COC(=O)CNC(=O)[C@H](C)NC(=O)OCc1ccccc1 [Gly] (Cbz-Ala-Gly-OMe) ?
Result: 0 A580 change/min./mg protease

Task: And COC(=O)[C@H](Cc1c[nH]c2ccccc12)NC(=O)[C@H](C)NC(=O)OCc1ccccc1 [Trp] (Cbz-Ala-Trp-OMe) ?
Result: trace

---
Task: Esterase rate, Trypsin of COC(=O)[C@H](CCCCN)NC(=O)[C@H](C)NC(=O)OCc1ccccc1 [Lys] (Cbz-Ala-Lys-OMe) on Trypsin?
Result: 155.8 A580 change/min./mg protease

Task: And COC(=O)[C@@H](NC(=O)[C@H](C)NC(=O)OCc1ccccc1)[C@@H](C)O [Thr] (Cbz-Ala-Thr-OMe) ?
Result: 0 A580 change/min./mg protease

* * *

System: α-Lytic protease (Lysobacter enzymogenes, UniProt P00778)
Sequence (P00778 25-397 limits assumed): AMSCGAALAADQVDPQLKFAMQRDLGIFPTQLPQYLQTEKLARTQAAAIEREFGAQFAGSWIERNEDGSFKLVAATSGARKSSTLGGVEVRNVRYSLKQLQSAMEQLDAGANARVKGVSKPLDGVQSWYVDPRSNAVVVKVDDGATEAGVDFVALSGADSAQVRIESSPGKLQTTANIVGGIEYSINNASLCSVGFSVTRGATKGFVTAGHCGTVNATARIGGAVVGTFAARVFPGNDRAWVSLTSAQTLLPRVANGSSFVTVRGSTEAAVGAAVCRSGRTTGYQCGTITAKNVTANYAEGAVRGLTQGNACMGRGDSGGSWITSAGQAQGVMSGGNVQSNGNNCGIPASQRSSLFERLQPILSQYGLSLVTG
Protocol Details: Esterase assay, α-lytic protease
Format: biochemical
Protocol Conditions: Z-AX-OMe substrate, X = P1 residue; rates approximately ± 10%
Where a SMILES comes first, the peptide text is derived from it. The star is where a group is joined. Cbz = O=C(OCc1ccccc1)*
Collected Esterase rate, α-Lytic protease values appear next to each entry.

Consider the reported Esterase rate, α-Lytic protease for these compounds:
Task: Esterase rate, α-Lytic protease of COC(=O)[C@H](CC(C)C)NC(=O)[C@H](C)NC(=O)OCc1ccccc1 [Leu] (Cbz-Ala-Leu-OMe) on α-Lytic protease (Lysobacter enzymogenes, UniProt P00778)?
Result: 0 A580 change/min./mg protease

Task: And COC(=O)[C@H](CCC(N)=O)NC(=O)[C@H](C)NC(=O)OCc1ccccc1 [Gln] (Cbz-Ala-Gln-OMe) ?
Result: 0 A580 change/min./mg protease

Task: And COC(=O)[C@@H](NC(=O)[C@H](C)NC(=O)OCc1ccccc1)[C@@H](C)O [Thr] (Cbz-Ala-Thr-OMe) ?
Result: 4.2 A580 change/min./mg protease

Task: And COC(=O)[C@H](CCC(=O)O)NC(=O)[C@H](C)NC(=O)OCc1ccccc1 [Glu] (Cbz-Ala-Glu-OMe) ?
Result: 0 A580 change/min./mg protease

---
Task: Esterase rate, α-Lytic protease of COC(=O)[C@H](C)NC(=O)[C@H](C)NC(=O)OCc1ccccc1 [Ala] (Cbz-Ala-Ala-OMe) on α-Lytic protease (Lysobacter enzymogenes, UniProt P00778)?
Result: 6.2 A580 change/min./mg protease

Task: And COC(=O)[C@H](CC(N)=O)NC(=O)[C@H](C)NC(=O)OCc1ccccc1 [Asn] (Cbz-Ala-Asn-OMe) ?
Result: 0 A580 change/min./mg protease

Task: And COC(=O)[C@H](Cc1cnc[nH]1)NC(=O)[C@H](C)NC(=O)OCc1ccccc1 [His] (Cbz-Ala-His-OMe) ?
Result: 0 A580 change/min./mg protease
